Measured melting point, listed per entry for reference.

| COMPOUND | melting point |
| --- | --- |
| CCN1C(=O)C(C(=O)Nc2cccc(C(=O)Nc3ccc(I)cc3)c2)c2cc(C(C)=O)ccc21 (stereo not drawn) | 205 to 210 °C |
| CC(=O)c1ccc2c(c1)C(C(=O)Nc1cccc(C(=O)Nc3ccccc3)c1)C(=O)N2C (stereo not drawn) | 178 to 179 °C |
| CCC(=O)c1ccc2c(c1)C(C(=O)Nc1cccc(C(=O)Nc3ccccc3)c1)C(=O)N2CC (stereo not drawn) | 179 to 180 °C |
| CC(=O)c1ccc2c(c1)C(C(=O)Nc1cccc(C(=O)Nc3ccccc3)c1)C(=O)N2CC(F)(F)F (stereo not drawn) | 197 to 203 °C |
| CCN1C(=O)C(C(=O)Nc2cccc(C(=O)Nc3ccccc3)c2)c2cc(C(C)=O)ccc21 (stereo not drawn) | 173 to 175 °C |

Let us move to another entry and its melting point.
Item under review: O=C(N[C@@H](Cc1ccccc1)C(=O)N1CCOCC1)c1cc2cc(Cl)sc2[nH]1 . Reported melting point?
108 to 110 °C
